Emax for assorted compounds
- Tested on: P. falciparum Dd2 (PfLuc) line expressing firefly luciferase, asexual blood stage
- Assay Comment: microbe, parasite or virus in culture
- Assay type: cell-based, Plasmodium falciparum
- Run Parameters: Plasmodium falciparum, DD2; 11-pt dose response, 96hr; read-out: CDD P. falciparum Luciferase ABS 11-pt Reconfirmation Dose Response (96hr): Maximum inhibition (%)
Give your result in % as a bare value.

{"columns": ["Compound", "Experimental Result"],
 "data": [
  ["CN(C)[C@@H]1CCN(c2ncc(F)cn2)[C@H]1Cc1ccccc1", 86.9],
  ["Cc1cccc(CNC(CN2CCN(C)CC2)c2ccccc2)c1 (stereo not drawn)", 99],
  ["Clc1cccc(C(NCc2ncc[nH]2)c2ccccn2)c1 (stereo not drawn)", 98.7],
  ["CCc1[nH]c2c(CNc3nc(C)cc(NC)n3)cc(C)cc2c1C", 98.4],
  ["Cc1nc(-c2cc(Cl)cc3c2OC(CN)C3)c[nH]1 (stereo not drawn)", 84.3],
  ["COCCC1(CNC(=O)Nc2ccnc(C)c2)CCCC1", 82]
]}

# input Param readout= Emax; system= P. falciparum Dd2 (PfLuc) line expressing firefly luciferase, asexual blood stage; entry= CNC(=O)CCN(C)CC1(c2ccc(Br)cc2)CC1 ; returns value.
# output 88.9

# input Can you look up Emax on P. falciparum Dd2 (PfLuc) line expressing firefly luciferase, asexual blood stage for Clc1ccccc1C1(c2ccnc(-c3ccncc3)n2)CCNCC1 ?
# output 99.5

# input I'm curious: which Emax was measured for Cc1cccc(CN2CCCC2c2cccc(Nc3nccs3)n2)c1 (stereo not drawn) tested on P. falciparum Dd2 (PfLuc) line expressing firefly luciferase, asexual blood stage?
# output 101

###

- Target Desc: recombinant firefly luciferase (Photinus pyralis, UniProt P08659)
- Sequence (P08659 whole entry): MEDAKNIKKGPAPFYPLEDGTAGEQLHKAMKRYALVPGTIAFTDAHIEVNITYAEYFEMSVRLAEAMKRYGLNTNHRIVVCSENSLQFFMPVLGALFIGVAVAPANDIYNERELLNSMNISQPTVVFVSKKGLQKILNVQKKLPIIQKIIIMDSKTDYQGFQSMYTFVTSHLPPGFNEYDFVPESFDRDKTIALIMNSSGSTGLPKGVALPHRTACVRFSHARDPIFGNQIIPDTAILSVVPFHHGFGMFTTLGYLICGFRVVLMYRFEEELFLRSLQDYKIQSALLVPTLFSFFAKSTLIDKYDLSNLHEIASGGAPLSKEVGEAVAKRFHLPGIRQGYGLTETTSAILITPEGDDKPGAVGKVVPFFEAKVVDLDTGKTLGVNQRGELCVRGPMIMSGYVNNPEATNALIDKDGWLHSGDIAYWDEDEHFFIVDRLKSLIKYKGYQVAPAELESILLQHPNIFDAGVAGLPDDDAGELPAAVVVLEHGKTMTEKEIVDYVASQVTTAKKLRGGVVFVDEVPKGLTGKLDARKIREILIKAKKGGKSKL
- Assay Comment: biochemical
- Run Parameters: dose response, maximum inhibition; read-out: rLuc inhibition dose response: Maximum inhibition (%)
Entries and their Emax
Give a bare numeral; the unit % is implied.

Solved cases below.
{"columns": ["Molecule", "Readout Type", "Unit Label", "Experimental Result"],
 "data": [
  ["CCS(=O)(=O)N1CCc2ccc(NC(=O)Nc3cccc(F)c3)cc21", "Emax", "%", 22.1],
  ["CCc1nc(CN2CCN(c3ncnc4cc(F)ccc34)CC2)no1", "Emax", "%", 3.14],
  ["CCCc1cc(=O)[nH]c(-n2nc(C3CC3)cc2N)n1", "Emax", "%", 12.2]
]}

# input Given the molecule N#Cc1c(Cl)nsc1NCC1(c2ccccc2)CCC1 , what is its reported Emax?
# output 16.9

# input Which value of Emax has been reported for CC(C)N(CC(N)=O)Cc1csc(COc2ccc(F)cc2)n1 in the records?
# output 5.14

# input Look at this molecule and give its reported Emax. N#Cc1c(Cl)nsc1NCc1cccnc1OCC(F)(F)F
# output 43.9

# input What measured Emax goes with CC(C)(C)OC(=O)N1CCCN(Cc2ccon2)c2ccccc21 ?
# output 18.4

# input Need Emax, item CC(C)(C)n1ncc2c1CCCC2NCc1ccc2c(c1)OCCO2 (stereo not drawn)
# output 85

# input State the recorded Emax for this entry: CC(=O)N1CCN(Cc2cccc3c2sc2ccccc23)CC(O)C1 (stereo not drawn)
# output 15.6

###

- System: HepG2-A16-CD81 hepatocytes
- Assay Comment: HepG2 cytotoxicity screening (CellTiter-Glo)
- Run Parameters: 12pt dose response, maximum inhibition
List of HepG2 cytotoxicity 12pt dose response: Maximum inhibition (%) values.
API: value field is a number in %; no unit string.

{"columns": ["Compound", "Unit Label", "Experimental Result"],
 "data": [
  ["Cc1csc2ncnc(N3CCC(Cn4cc(C(C)(C)N)nn4)CC3)c12", "%", 46.5],
  ["NC(=O)c1ccc(N2CCCCC2)c(NC(=O)c2ccc(F)cc2F)c1", "%", 5.59],
  ["O=C(O)c1cccnc1N1CCN(Cc2ccc(F)cc2)C(CCO)C1 (stereo not shown)", "%", 4.04],
  ["CC(=O)Nc1ncc(S(=O)(=O)Nc2ccc3c(c2)OCCO3)s1", "%", 4.04],
  ["CCc1cc(=O)[nH]c(-n2nc(C3CC3)cc2NC(=O)C2CC2)n1", "%", 54],
  ["Cc1nc(NC(=O)c2c(-n3cnnn3)sc(C)c2C)sc1C", "%", 8.84]
]}

# input Can you look up the measured HepG2 cytotoxicity 12pt dose response: Maximum inhibition (%) of COc1ccc(-c2nc(CN3CC(n4cc(C)cn4)C3)no2)cc1 for me?
# output 1.19

# input If you can, please state the reported HepG2 cytotoxicity 12pt dose response: Maximum inhibition (%) value of COC(=O)c1sc(NCc2ccc(N3CCC(O)CC3)c(F)c2)nc1Cl .
# output 58.9

# input Recorded HepG2 cytotoxicity 12pt dose response: Maximum inhibition (%) of Fc1ccc(CN2CCCC(c3cc4ncccc4[nH]3)C2)cc1 (stereo not shown) , please.
# output -0.046

# input Quick one: HepG2 cytotoxicity 12pt dose response: Maximum inhibition (%) for Cc1ccc(CN2CCCC3(CCN(Cc4ccoc4)CC3)C2)cc1 ?
# output 55.5

# input Name the reported HepG2 cytotoxicity 12pt dose response: Maximum inhibition (%) value associated with the compound COc1ccc2cc(C3CN(C(=O)CCNC(C)=O)CCO3)ccc2c1 (stereo not shown)
# output 2.45

# input Recorded HepG2 cytotoxicity 12pt dose response: Maximum inhibition (%) of Cc1noc(NC(=O)c2ccc(OC(F)(F)F)cc2)n1 , please.
# output 50.3

# input So what's the measured HepG2 cytotoxicity 12pt dose response: Maximum inhibition (%) for this one? O=C(CN1CCCC(c2ccn[nH]2)C1)Nc1nc2c(s1)CCCC2 (stereo not shown)
# output 8.88

# input Quick one: HepG2 cytotoxicity 12pt dose response: Maximum inhibition (%) for CNC(=O)CCC(=O)N1CCOC(c2ccc3cc(OC)ccc3c2)C1 (stereo not shown) ?
# output 1

# input What measured HepG2 cytotoxicity 12pt dose response: Maximum inhibition (%) goes with COc1cccc(-c2noc(C3CCN(Cc4cn(C)nc4C)C3)n2)c1 (stereo not shown) ?
# output 4.79

# input Consider the compound COCc1noc(-c2ccc(N3CCCCC3CO)nc2)n1 (stereo not shown) and give its measured HepG2 cytotoxicity 12pt dose response: Maximum inhibition (%).
# output 0.196

# input # lookup: HepG2 cytotoxicity 12pt dose response: Maximum inhibition (%) of COc1cc(C)c(CN2CCc3nc4ccsc4c(=O)n3CC2)cc1C
# output 25.1

# input Give the measured HepG2 cytotoxicity 12pt dose response: Maximum inhibition (%) of CC(C)Cn1ccc2c(NC(=O)c3n[nH]c4c3CCC4)cccc21 .
# output 32.3

# input What measured HepG2 cytotoxicity 12pt dose response: Maximum inhibition (%) goes with CCc1cccc(N2CCC(NC(=O)c3ccco3)CC2)c1 ?
# output 3.68

Source of measurements: paper PMC7155171
